Target: LORE (Arabidopsis thaliana, UniProt O64782)
Construct: aequorin-expressing wild-type (Col-0^AEQ) or lore-1 mutant seedlings; endogenous in cells; host or cells: Arabidopsis thaliana Col-0 / Col-0^AEQ seedlings and leaf discs
Sequence (O64782 22-805): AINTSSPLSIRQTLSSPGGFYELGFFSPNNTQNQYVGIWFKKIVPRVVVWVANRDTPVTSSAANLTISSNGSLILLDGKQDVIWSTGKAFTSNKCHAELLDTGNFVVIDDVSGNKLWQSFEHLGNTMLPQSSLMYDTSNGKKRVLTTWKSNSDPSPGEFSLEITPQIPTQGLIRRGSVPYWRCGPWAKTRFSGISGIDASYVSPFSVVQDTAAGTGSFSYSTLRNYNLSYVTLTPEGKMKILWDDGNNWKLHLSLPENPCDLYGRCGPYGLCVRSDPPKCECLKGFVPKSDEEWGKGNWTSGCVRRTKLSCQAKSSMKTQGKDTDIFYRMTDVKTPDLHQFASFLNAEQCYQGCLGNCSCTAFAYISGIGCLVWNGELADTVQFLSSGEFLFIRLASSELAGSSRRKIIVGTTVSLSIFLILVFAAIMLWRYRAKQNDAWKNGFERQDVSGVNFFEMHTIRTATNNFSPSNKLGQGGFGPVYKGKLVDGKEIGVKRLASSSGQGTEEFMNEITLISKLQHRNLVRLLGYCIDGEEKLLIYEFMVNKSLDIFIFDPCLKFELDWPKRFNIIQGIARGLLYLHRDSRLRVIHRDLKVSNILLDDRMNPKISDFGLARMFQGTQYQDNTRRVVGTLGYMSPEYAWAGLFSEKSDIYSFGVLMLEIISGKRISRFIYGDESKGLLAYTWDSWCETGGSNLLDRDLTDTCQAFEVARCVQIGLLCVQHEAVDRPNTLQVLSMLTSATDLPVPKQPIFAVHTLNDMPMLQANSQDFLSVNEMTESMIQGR
Experiment: PTI in Arabidopsis (biological assays, LORE dependence)
Format: cell-based
Conditions: sample conc. used for biological assays 5 μM

[
  {
    "compound": "CCCCCCCCCC(=O)NC1CCOC1=O (racemic)",
    "PTI in Arabidopsis": "No"
  },
  {
    "compound": "CCCCCCCC(O)CC(=O)N[C@H]1CCOC1=O (stereo partly shown)",
    "PTI in Arabidopsis": "No"
  },
  {
    "compound": "CCCCCCCC(O)CC(=O)O (racemic) [Compound 1, 3-hydroxydecanoic acid]",
    "PTI in Arabidopsis": "Yes"
  },
  {
    "compound": "CCCCCCCC(=O)CC(=O)N[C@H]1CCOC1=O",
    "PTI in Arabidopsis": "No"
  }
]

Where these numbers come from: patent US20210247400A1
